Values were extracted from ChEMBL document CHEMBL1201862.

- Tested on: BT-549
- ASSAY_DETAILS: NCI tumour cell line growth inhibition, 48 h
The source made the active and inactive calls. No stated cut-off is given here; in the data, active = GI50 up to about 1.1 µM and inactive = higher.
Give your call using only these classes: active, inactive

| COMPOUND | LABEL_CLASS |
| --- | --- |
| COc1ccccc1C1(c2c(OC(C)C)c(=O)c2=O)SCCCS1 | inactive |
| O=[N+]([O-])c1ccc(Oc2c(Cl)cc(S(=O)(=O)N/C(=N\O)Nc3ccc(Cl)cc3)cc2Cl)c(Cl)c1 | inactive |
| CCN(CC)CCCNc1nncc2cc3c([nH]c4ccccc43)c(C)c12 | inactive |
| CC1=NN(c2ccc(C)cc2)C2(C1)SCC(=O)N2c1nc2ccccc2s1 (stereo unspecified) | inactive |
| O=C(N1CCN(c2ccccc2)CC1)N(C(=O)C1(c2ccc(Cl)cc2)CCCC1)S(=O)(=O)c1ccccc1 | inactive |
| CC1CC[P+](c2ccccc2)(c2ccccc2)c2c1ccc1ccccc21 (stereo unspecified) | active |

Look up the recorded call for C=C(C)[C@@H]1CC[C@]2(CO)CC[C@]3(C)[C@H](CC[C@@H]4[C@@]5(C)CC[C@H](O)C(C)(C)[C@@H]5CC[C@]43C)[C@@H]12 [BETULIN] in this test.
inactive

Dear colleague, could you share the recorded outcome for O=C1/C(=C\c2cccs2)Oc2ccccc21 when you have a moment?
inactive

Each compound tested received a call. Report the one for CC1(C)COC2=C(C1)C(=O)c1ccccc1C2=O .
inactive

# lookup: test call for CCCCC1C=Cn2c(=O)oc3c(OC(C)C)c(C)c(O)c1c32 (stereo unspecified)
inactive

Recorded test call requested for O=C1C=CC(=O)c2cc(Sc3ccccc3)c(=O)ccc21
inactive

###

- System: HOP-18
- ASSAY_DETAILS: NCI tumour cell line growth inhibition, 48 h
Calls of active or inactive are those of the source. Cut-off read from the data, not from the text of the source: active = GI50 up to about 1.1 µM and inactive = higher.
TEST_READOUT: GI50

Use the examples below as a reference point.
| COMPOUND | TARGET_OR_SYSTEM | GI50 |
| --- | --- | --- |
| CCOC(=O)C1C(c2ccc([N+](=O)[O-])cc2)NC(c2ccc([N+](=O)[O-])cc2)C(C(=O)OC)S1(=O)=O (centres undefined) | HOP-18 | > 100 µM (inactive) |
| Cn1c(=O)nc2n(-c3ccc(Cl)cc3)c(-c3ccccc3)c(-c3ccccc3)nc-2c1=O | HOP-18 | 57.9 µM (inactive) |
| N#C[C@H](OC1OC(COC2OC(CO)C(O)C(O)C2O)C(O)C(O)C1O)c1ccccc1 (some centres undefined) | HOP-18 | > 250 µM (inactive) |
| O=c1c2ccccc2nc(-c2ccccc2)n1NC(=S)Nc1ccc(Cl)cc1 | HOP-18 | > 100 µM (inactive) |
| C/C=C(\CCOS(=O)(=O)c1ccc(C)cc1)[Si](C)(C)C | HOP-18 | > 100 µM (inactive) |
| COc1cc2c(c(OC)c1OC)C(=O)NCCC2 | HOP-18 | > 100 µM (inactive) |
| O=C1C(c2ccc([N+](=O)[O-])cc2)=[N+]([O-])c2ccccc21 | HOP-18 | < 0.01 µM (active) |
| Cc1ccccc1NC(=O)c1cc2cc(/N=N/c3ccccc3C(=O)O)ccc2oc1=O | HOP-18 | 15 µM (inactive) |
| CNC(=O)ON(C(C)=O)C(=O)NC [CARACEMIDE] | HOP-18 | 97.7 µM (inactive) |
| COC1=CC(=O)c2c(cc3c(c2O)-c2c(OC)cc4cc5c(c(O)c4c2OC(=O)CC(C)(O)C3)C(=O)CC(C)(O)C5)C1=O (centres undefined) | HOP-18 | 1.3 µM (inactive) |

Hello, please tell me recorded GI50 for this one: COc1cc2c(c3c1c(=O)c1ccccc1n3C)C=CC(C)(C)O2
56 µM (inactive)

Output measured GI50 for this item: O=c1cc2ccccc2nn1-c1ccccc1Cl
> 100 µM (inactive)

Read the entry C=C1C(C)C2C(Cc3ccccc3)NC(=O)C23C(OC(C)=O)/C=C/C(C)(O)CC(C)C/C=C/C3C1O (centres undefined) and write its reported GI50.
0.0324 µM (active)

Answer with the recorded GI50 of COc1ccccc1/C=C(\C#N)c1ccccc1 only.
38.5 µM (inactive)

###

# key: entry, value: GI50
- Tested on: MCF7
- ASSAY_DETAILS: NCI tumour cell line growth inhibition, 48 h
Calls of active or inactive are those of the source. Rule as the data show it: active = GI50 up to about 1.1 µM and inactive = higher.

Observe how each entry below is paired with its result.
| COMPOUND | RESULT |
| --- | --- |
| CC(O)CCNC(=O)Nc1c(C(F)(F)F)cc(-c2ccccc2)[nH]c1=O (stereo not drawn) | > 100 µM (inactive) |
| O=C1CC(NC(=O)C(F)(F)F)c2c(Br)sc(N3CCC(c4ccccc4)CC3)c21 (stereo not drawn) | 18.7 µM (inactive) |
| CC1=Nc2c(O)nc(S)nc2NC(c2c(Cl)cccc2Cl)C1 (stereo not drawn) | 1.13 µM (inactive) |
| COc1nc(C)nc2c1ncn2Cc1ccccc1 | 58.9 µM (inactive) |
| CC1CC[P+](c2ccccc2)(c2ccccc2)c2c1ccc1ccccc21 (stereo not drawn) | 2.26 µM (inactive) |
| O=C(O)CCC(c1ccccc1)(c1ccccc1)c1ccccc1 | 17.7 µM (inactive) |

Consider the compound O=c1cc(/N=N\c2ccc(Cl)cc2)[nH]c(=O)[nH]1 . State its measured GI50.
3.97 µM (inactive)

Tell me its GI50 given O=[N+]([O-])c1ccc(Oc2c(Cl)cc(S(=O)(=O)N/C(=N\O)Nc3ccc(Cl)cc3)cc2Cl)c(Cl)c1 as the entry.
17.2 µM (inactive)

Quickly give me recorded GI50 for NCCOCC(N)C(=O)O (stereo not drawn)
> 100 µM (inactive)

Return value of GI50 for input Oc1ccc(-c2c3ccccc3c(-c3ccc(OCCBr)cc3)c3ccccc23)cc1 , no commentary.
14.4 µM (inactive)

Report GI50 for O=C1C(c2c(O)[nH]c3ccc(Br)cc23)=Nc2ccc(Br)cc21
13.6 µM (inactive)

Indicate its recorded GI50; the compound in question is COc1cc(C2c3c(ccc4ccccc34)C(=O)C3CCC(=O)N32)cc(OC)c1OC (stereo not drawn)
> 50 µM (inactive)

Please give measured GI50 of the following entry: COc1c(C)c(C/C=C(\C)CC/C=C(\C)CCC=C(C)C)c(OC)c(OC)c1OC
44.2 µM (inactive)

###

- Test system: UACC-257
- ASSAY_DETAILS: NCI tumour cell line growth inhibition, 48 h
Calls of active or inactive are those of the source. Cut-off read from the data, not from the text of the source: active = GI50 up to about 1.1 µM and inactive = higher.
TEST_READOUT: GI50

Recorded GI50, per entry:
| COMPOUND | TARGET_OR_SYSTEM | GI50 |
| --- | --- | --- |
| COc1ccccc1C1(c2c(OC(C)C)c(=O)c2=O)SCCCS1 | UACC-257 | > 100 µM (inactive) |
| CC12CC(c3ccccc3O1)C(C(=O)Nc1ccc(Cl)cc1Cl)C(=O)N2 (stereo not given) | UACC-257 | > 100 µM (inactive) |
| O=C1C(c2c(O)[nH]c3ccc(Br)cc23)=Nc2ccc(Br)cc21 | UACC-257 | > 100 µM (inactive) |
| COC(=O)C(CC(C)C)NC(=O)C(NC(=O)c1ccc(-c2ccc(Cl)cc2Cl)o1)C(C)C (stereo not given) | UACC-257 | 17.1 µM (inactive) |

# context switch: different compound, same GI50
Under UACC-257: report GI50 of C=CC[C@@]12CCC(=O)C=C1CCCC2=O .
> 100 µM (inactive)

###

- System: SNB-19
- ASSAY_DETAILS: NCI tumour cell line growth inhibition, 48 h
Active and inactive are the calls of the source. Rule as the data show it: active = GI50 up to about 1.1 µM and inactive = higher.
Your response should consist of one outcome taken from active, inactive

| COMPOUND | LABEL_CLASS |
| --- | --- |
| CC1(C)COC2=C(C1)C(=O)c1ccccc1C2=O | inactive |

For COC(=O)C1C=CCON2CCc3c(n(C)c4ccccc34)C12 (centres undefined) , what call appears in the results of this test?
inactive

Assay result, entry CCCCCCCCCC[C@H](O)[C@H]1CC[C@H]([C@H]2CC[C@H]([C@H](O)CC[C@H](O)CCCCCCC[C@@H](O)CC3=C[C@H](C)OC3=O)O2)O1 — outcome?
inactive

Short answer needed: outcome of this test for COc1cc(C2c3cc4c(cc3[C@@H](OCCN)[C@H]3COC(=O)C23)OCO4)cc(OC)c1O (some centres undefined) ?
active

Fill in: this test's call for COc1cccc(NC(=O)/C(Cc2nc3ccccc3nc2C)=N/NC(=O)C[n+]2ccccc2)c1 is ___
inactive

How did this test come out for O=c1c(Br)cc2c(-c3ccccc3)c3cc(Br)c(O)c(Br)c3oc-2c1Br ?
inactive

Call for entry Cn1ccnc1Cn1cc(-c2cccc(-c3cn[nH]c3)c2)cn1 :
inactive

What did the test return for C=C(C(=O)OC)[C@H]1CC/C(C)=C/CC/C(C)=C/CC[C@@]2(C)O[C@@H]2C1 ?
inactive

# fetch the recorded call for COc1cc([C@H]2c3cc4c(cc3[C@H](NCc3ccc([N+](=O)[O-])cc3)C3COC(=O)[C@H]32)OCO4)cc(OC)c1O (some centres undefined) here
active

Which outcome did this test record for the compound Cc1nn2c(=O)c([N+](=O)[O-])c(/C=C/c3ccccc3)nc2s1 ?
inactive

Per the records of this test, what outcome belongs to [N-]=[N+]=NC1C(Br)C(=O)NC(=O)N1[C@H]1C[C@H](O)[C@@H](CO)O1 (some centres undefined) ?
inactive

Identify the outcome logged in this assay for the compound shown: COc1cc(/C=C2\N=C(c3ccccc3)N(c3nc4ccc(Sc5ccccc5)cc4[nH]3)C2=O)cc(OC)c1OC
inactive
